Test system: NCI/ADR-RES
assay-remarks: NCI tumour cell line growth inhibition, 48 h
The source made the active and inactive calls. Rule as the data show it: active = GI50 up to about 1.1 µM and inactive = higher.
As shown below, each of these compounds has a reported GI50 value.

>>> endpoint_result("CCOC(=O)/C=C(/C(=O)OCC)n1cc(C)c(=O)[nH]c1=O")
"10.9 µM (inactive)"
>>> endpoint_result("Cc1c(N2CCCC2)cc2c(c1NC(=O)c1ccccc1Cl)C(C)(C)CC2(C)C")
"13.4 µM (inactive)"
>>> endpoint_result("N#Cc1ccc2oc3ccc(C#N)cc3c(=O)c2c1")
"> 100 µM (inactive)"
>>> endpoint_result("COc1cc(N(CCC#N)CCC#N)ccc1C(=N/NC(=O)c1cc(Br)ccc1O)/N=N/c1ccc(C)cc1")
"27.1 µM (inactive)"
>>> endpoint_result("NC1CC(=O)c2cc(Cl)sc21 (configuration not stated)")
"> 100 µM (inactive)"

// field: GI50; key: "Cc1ccccc1-c1nc2c(C(=O)NCCN(C)C)cccc2[nH]1" ; value = 34.3 µM (inactive)

// field: GI50; key: "N=C1C=C(N)C(=O)c2[nH]c(=O)ccc21" ; value = 2.27 µM (inactive)

// field: GI50; key: O=C1c2ccccc2OCC12OC21C=CC(Cl)=CC1 (configuration not stated) ; value = 22.5 µM (inactive)

// field: GI50; key: CCOC(=O)C1=C(C)N(Cc2ccccc2)C2(O)C=CC(O)=C3C(=O)c4ccccc4C(=O)C312 (configuration not stated) ; value = 0.182 µM (active)

// field: GI50; key: "c1ccc([P+](Cc2ccc(C[P+](c3ccccc3)(c3ccccc3)c3ccccc3)cc2)(c2ccccc2)c2ccccc2)cc1" ; value = > 100 µM (inactive)

// field: GI50; key: "Cc1ccc(S(=O)(=O)Nn2c(S)c(C#N)c(-c3ccc(N(C)C)cc3)c(C#N)c2=O)cc1" ; value = 32 µM (inactive)

// field: GI50; key: "Cc1ccc(NC(=O)c2ccc(OP(=O)(O)Nc3ccc(C)cc3)cc2)cc1" ; value = > 100 µM (inactive)

// field: GI50; key: CC(O)c1cc2c(s1)C(=O)c1scc(C(C)O)c1C2=O (configuration not stated) ; value = 0.283 µM (active)

// field: GI50; key: "O=C1/C(=C\c2ccc([N+](=O)[O-])cc2)N(S(=O)(=O)c2ccccc2)c2ncccc21" ; value = 23.9 µM (inactive)

* * *

Tested on: SR
assay-remarks: NCI tumour cell line growth inhibition, 48 h
Active and inactive are the calls of the source. No stated cut-off is given here; in the data, active = GI50 up to about 1.1 µM and inactive = higher.
measured-endpoint: GI50

>>> endpoint_result("CCN(CC)C(=O)N1CCN(C=S)CC1")
"> 100 µM (inactive)"
>>> endpoint_result("CC(C)C(=O)C(C)(C)CCc1ccccn1")
"> 100 µM (inactive)"
>>> endpoint_result("CCOC(=O)C(C)(C)Oc1ccc2c(-c3ccc(Cl)cc3)c(-c3ccc(Cl)cc3)c(=O)oc2c1")
"> 100 µM (inactive)"
>>> endpoint_result("Cc1cccc(C(C)C)c1NC(=O)CCl")
"47.8 µM (inactive)"
>>> endpoint_result("CO[C@H]1O[C@@H]2OC3(C)CCC4[C@H](C)CCC([C@H]1C)[C@]42OO3 (some centres not stated)")
"56.2 µM (inactive)"
>>> endpoint_result("Nc1ccccc1N/C(=C\\C(=O)C(Cl)(Cl)Cl)c1ccccc1")
"28.2 µM (inactive)"
>>> endpoint_result("CC(C)NC(=O)OCc1c(COC(=O)NC(C)C)n(C)c2c1ccc1cc(Cl)c(Cl)cc12")
"2.64 µM (inactive)"
>>> endpoint_result("N=C1C=C(N)C(=O)c2[nH]c(=O)ccc21")
"3.44 µM (inactive)"

// field: GI50; key: "N=c1oc2ccc3ccccc3c2cc1-c1nc(O)c2ccccc2n1" ; value = 26.5 µM (inactive)

// field: GI50; key: "COc1ccc(-c2nnc(-c3ccncc3)o2)cc1" ; value = > 100 µM (inactive)
